# tgt: recombinant human IDO1 enzyme (Homo sapiens, UniProt P14902)
# Sequence (P14902 whole entry): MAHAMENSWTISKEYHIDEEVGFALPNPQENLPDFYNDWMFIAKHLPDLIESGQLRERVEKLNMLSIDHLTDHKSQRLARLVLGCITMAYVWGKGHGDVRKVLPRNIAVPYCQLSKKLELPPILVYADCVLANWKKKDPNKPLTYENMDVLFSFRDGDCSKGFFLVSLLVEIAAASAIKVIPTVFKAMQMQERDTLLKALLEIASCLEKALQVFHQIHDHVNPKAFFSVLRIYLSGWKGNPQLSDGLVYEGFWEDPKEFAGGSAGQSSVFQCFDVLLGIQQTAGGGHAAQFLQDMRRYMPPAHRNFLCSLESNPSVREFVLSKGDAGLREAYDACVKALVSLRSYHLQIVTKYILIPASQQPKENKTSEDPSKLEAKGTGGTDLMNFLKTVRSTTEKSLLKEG
# protocol-summary: In vitro hIDO1 enzyme activity test (NFK Green fluorescence)
# experimental-parameters: recombinant human IDO1, L-tryptophan substrate, pH 6.5
Below, each entry is listed alongside its reported IC50.
measurement-label: IC50 (µM)

* c1ccc2c(c1)CCC(C1c3sccc3-c3cncn31)C2 (single isomer, unassigned) [Example 56] | 0.851
* c1ccc2c(C3CCC(C4c5sccc5-c5cncn54)CC3)ccnc2c1 (single isomer, unassigned) [Example 94] | 1.46
* FC1(F)C2CC(C3c4sccc4-c4cncn43)CC21 (single isomer, unassigned) | 0.037
* OC1CCC(C2c3sccc3-c3cncn32)CC1 (single isomer, unassigned) [Example 118] | 7.29
* OC(CC1c2sccc2-c2cncn21)C1CCCCC1 (single isomer, unassigned) [Example 5] | 5.03
* c1cc2c(s1)C(COC1CCCCC1)n1cncc1-2 (single isomer, unassigned) [Example 17] | 0.338
* CC(C)C1c2sccc2-c2cncn21 (stereo not shown) | 8.12
* c1cc2c(s1)C(C1CCCCCC1)n1cncc1-2 (single isomer, unassigned) [Example 72] | 0.0999
